Hey, just so you know, these numbers are from patent US20250214991A1.

- target: IKZF1 (Homo sapiens (Human), UniProt Q13422+Q96SW2)
- Sequence (Q13422 whole entry): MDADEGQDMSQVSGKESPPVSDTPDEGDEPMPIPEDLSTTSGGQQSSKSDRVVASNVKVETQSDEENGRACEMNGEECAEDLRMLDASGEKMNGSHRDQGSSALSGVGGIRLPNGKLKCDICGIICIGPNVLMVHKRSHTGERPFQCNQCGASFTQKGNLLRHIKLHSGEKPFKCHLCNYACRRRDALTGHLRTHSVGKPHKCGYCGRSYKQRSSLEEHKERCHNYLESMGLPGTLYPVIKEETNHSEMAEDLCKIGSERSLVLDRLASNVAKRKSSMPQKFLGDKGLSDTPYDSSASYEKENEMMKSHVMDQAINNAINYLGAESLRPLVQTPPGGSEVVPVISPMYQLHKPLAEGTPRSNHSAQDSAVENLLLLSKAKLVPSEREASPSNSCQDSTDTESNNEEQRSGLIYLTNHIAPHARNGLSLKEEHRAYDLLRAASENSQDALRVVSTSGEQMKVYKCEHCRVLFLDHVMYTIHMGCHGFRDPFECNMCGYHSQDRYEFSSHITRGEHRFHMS
- Sequence (Q96SW2 whole entry): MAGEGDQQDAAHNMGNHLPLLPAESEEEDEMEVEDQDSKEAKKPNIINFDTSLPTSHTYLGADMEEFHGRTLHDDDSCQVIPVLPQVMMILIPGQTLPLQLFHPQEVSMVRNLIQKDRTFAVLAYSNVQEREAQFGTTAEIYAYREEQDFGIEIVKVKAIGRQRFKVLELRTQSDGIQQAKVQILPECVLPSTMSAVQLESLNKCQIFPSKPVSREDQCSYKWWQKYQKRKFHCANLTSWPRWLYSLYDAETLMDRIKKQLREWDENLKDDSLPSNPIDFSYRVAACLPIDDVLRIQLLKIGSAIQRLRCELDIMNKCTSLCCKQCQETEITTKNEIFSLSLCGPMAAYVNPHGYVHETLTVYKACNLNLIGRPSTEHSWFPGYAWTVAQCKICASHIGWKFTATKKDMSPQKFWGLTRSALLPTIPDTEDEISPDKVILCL
- Sequence (Q16531 2-1140 partner): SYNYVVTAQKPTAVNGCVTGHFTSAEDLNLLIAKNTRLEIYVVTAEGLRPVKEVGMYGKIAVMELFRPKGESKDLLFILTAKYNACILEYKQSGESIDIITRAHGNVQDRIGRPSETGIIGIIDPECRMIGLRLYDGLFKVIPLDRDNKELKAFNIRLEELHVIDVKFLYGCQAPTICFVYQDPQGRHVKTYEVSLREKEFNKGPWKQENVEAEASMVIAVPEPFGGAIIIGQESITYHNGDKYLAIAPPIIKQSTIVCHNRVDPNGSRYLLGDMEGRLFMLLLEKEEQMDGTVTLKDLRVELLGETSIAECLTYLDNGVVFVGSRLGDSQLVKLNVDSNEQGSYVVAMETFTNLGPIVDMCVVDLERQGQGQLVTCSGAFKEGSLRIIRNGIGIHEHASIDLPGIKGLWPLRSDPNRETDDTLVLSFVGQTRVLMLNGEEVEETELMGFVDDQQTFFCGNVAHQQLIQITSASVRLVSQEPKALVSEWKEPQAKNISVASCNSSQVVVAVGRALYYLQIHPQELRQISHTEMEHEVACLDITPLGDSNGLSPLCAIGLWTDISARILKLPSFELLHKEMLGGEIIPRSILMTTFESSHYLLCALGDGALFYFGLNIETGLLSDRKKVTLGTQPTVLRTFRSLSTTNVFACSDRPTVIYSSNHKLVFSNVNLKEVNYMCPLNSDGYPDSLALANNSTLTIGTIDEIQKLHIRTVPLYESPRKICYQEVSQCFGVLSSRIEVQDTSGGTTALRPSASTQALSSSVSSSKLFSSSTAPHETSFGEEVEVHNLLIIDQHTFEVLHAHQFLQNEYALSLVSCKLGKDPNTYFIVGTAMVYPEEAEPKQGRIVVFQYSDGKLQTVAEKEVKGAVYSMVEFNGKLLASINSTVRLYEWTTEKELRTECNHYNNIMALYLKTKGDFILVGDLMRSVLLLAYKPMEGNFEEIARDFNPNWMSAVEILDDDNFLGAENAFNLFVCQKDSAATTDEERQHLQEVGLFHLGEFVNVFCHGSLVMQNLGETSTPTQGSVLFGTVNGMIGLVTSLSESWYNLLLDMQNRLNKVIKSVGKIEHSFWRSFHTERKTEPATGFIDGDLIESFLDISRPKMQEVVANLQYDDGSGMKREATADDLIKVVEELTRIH
- assay summary: In vitro IKZF1 HiBit Assay (HEK293T Flp-in-HiBiT-IKZF1 stable cell line)
- Format: cell-based
- measurement setup: HEK-293T; HEK293T Flp-in-HiBiT-IKZF1 stable cell line, 6 hrs incubation; read-out: IKZF1 HiBit Dmax (%)
- Method: In Vitro IKZF1 HiBit Assay […] 25 nL of diluted compound is transferred to assay plates (Corning3571) using ECHO550, the final DMSO concentration @ 0.1%. […] The amount of Nano-Glo® HiBiT lytic reagent needed to perform the desired experiments is calculated. […] After briefly centrifuge, the plateis read on Envision. […] The extent of degradation (range of luminescence) from the highest to lowest concentration points was calculated to determine the Dmax. […]
Recorded Dmax by entry

| compound | result |
| --- | --- |
| CC1CCN(Cc2cc(-c3ccc4c(c3)CN(C3CCC(=O)NC3=O)C4=O)n3cncc3c2)C1 (centres unmarked) | < 20% |

Task: In one line, give reported Dmax of the entry O=C1CCC(N2Cc3cc(-c4cc(CN5CCC(O)CC5)c5ccn(C6CC6)c5n4)ccc3C2=O)C(=O)N1 (centres unmarked) .
Result: 20 to 40%

Task: Output Dmax of Nc1[nH]nc2c(CN3CCCC3)cc(-c3ccc4c(c3F)CN(C3CCC(=O)NC3=O)C4=O)nc12 (centres unmarked)
Result: 60 to 80%

Task: Could you please provide reported Dmax for O=C1CCC(N2Cc3cc(-c4cc(CN5CCCC5)c5ccn(C6COC6)c5n4)c(Cl)cc3C2=O)C(=O)N1 (centres unmarked) ? Thanks!
Result: < 20%

Task: Supply recorded Dmax for CN1CC(n2ccc3c(CN4CCCC4)cc(-c4ccc5c(c4F)CN(C4CCC(=O)NC4=O)C5=O)nc32)C1 (centres unmarked) here.
Result: 60 to 80%

---

Known DC50 of a selection of compounds
- target: IKZF1 (Homo sapiens (Human), UniProt Q13422+Q96SW2)
- assay summary: In vitro IKZF1 HiBit Assay (HEK293T Flp-in-HiBiT-IKZF1 stable cell line)
- Format: cell-based
- measurement setup: HEK293T Flp-in-HiBiT-IKZF1 stable cell line, 6 hrs incubation; read-out: IKZF1 HiBit DC50

Recorded results for 2 compounds are shown here.
| compound | DC50 |
| --- | --- |
| Cn1ccc2c(CN3CCC(S(C)(=O)=O)CC3)cc(-c3ccc4c(c3)CN(C3CCC(=O)NC3=O)C4=O)nc21 (centres unmarked) [Example 300] | > 10 µM |
| Cn1ccc2c(CN3CCCC3)cc(-c3ccc4c(c3)CN(C3CCC(=O)NC3=O)C4=O)nc21 (centres unmarked) [Example 55] | > 10 µM |

Task: Report DC50 for Cn1ccc2c(CN3CCCCC3)cc(-c3ccc4c(c3)CN(C3CCC(=O)NC3=O)C4=O)nc21 (centres unmarked) [Example 57]
Result: > 10 µM

Task: Provide measured DC50 value, entry: CCn1ccc2nc(-c3ccc4c(c3)CN(C3CCC(=O)NC3=O)C4=O)cc(CN3CCC3)c21 (centres unmarked) [Example 124]
Result: 0.01 to 0.1 µM

Task: Using known records, supply DC50 for Cn1ccc2c(CN3CC4CC4C3)cc(-c3ccc4c(c3)CN(C3CCC(=O)NC3=O)C4=O)nc21 (centres unmarked) [Example 66]
Result: > 10 µM

Task: Tell me its DC50 given Cn1ccc2c(CN3CCC4(CC3)CC4)cc(-c3ccc4c(c3)CN(C3CCC(=O)NC3=O)C4=O)nc21 (centres unmarked) [Example 64] as the entry.
Result: > 10 µM

Task: Please look at this compound and report its DC50: Cn1ccc2c(CN3CCC3)cc(-c3ccc4c(c3)CN(C3CCC(=O)NC3=O)C4=O)nc21 (centres unmarked) [Example 56]
Result: > 10 µM
